Attribution: patent US20210070748A1

- experimental-system: UniProt P52333
- Sequence (P52333 whole entry): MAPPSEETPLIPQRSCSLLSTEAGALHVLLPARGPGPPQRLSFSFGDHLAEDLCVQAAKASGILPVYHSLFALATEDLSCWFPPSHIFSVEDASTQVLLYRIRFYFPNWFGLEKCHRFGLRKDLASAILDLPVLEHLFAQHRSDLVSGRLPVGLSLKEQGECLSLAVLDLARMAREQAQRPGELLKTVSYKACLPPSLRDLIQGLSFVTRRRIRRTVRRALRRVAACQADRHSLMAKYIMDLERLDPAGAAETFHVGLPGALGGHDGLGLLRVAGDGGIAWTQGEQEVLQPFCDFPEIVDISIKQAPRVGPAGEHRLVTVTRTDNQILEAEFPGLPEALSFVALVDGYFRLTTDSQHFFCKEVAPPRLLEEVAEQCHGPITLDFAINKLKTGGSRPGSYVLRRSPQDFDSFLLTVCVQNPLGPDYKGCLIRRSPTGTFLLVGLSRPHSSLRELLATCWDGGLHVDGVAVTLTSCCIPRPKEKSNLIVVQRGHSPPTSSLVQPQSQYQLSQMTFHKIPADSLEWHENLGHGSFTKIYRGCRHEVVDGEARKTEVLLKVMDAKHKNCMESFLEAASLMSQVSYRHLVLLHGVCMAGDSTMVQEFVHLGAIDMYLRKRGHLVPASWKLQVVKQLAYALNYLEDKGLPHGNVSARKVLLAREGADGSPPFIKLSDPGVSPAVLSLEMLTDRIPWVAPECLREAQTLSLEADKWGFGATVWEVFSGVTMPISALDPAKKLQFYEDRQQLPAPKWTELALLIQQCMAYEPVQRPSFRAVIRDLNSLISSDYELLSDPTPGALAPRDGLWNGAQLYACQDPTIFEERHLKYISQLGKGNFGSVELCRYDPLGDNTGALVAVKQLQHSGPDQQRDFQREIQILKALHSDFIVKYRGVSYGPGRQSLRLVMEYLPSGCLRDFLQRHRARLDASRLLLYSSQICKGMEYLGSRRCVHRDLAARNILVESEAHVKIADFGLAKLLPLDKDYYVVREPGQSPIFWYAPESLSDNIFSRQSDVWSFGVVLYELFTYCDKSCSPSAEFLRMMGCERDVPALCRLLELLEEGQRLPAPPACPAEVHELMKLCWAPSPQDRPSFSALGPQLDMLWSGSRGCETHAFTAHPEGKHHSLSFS
- protocol-notes: Inhibition of a panel of kinases, in vitro HotSpot kinase assay: JAK3
- Assay type: biochemical
- test-context: Table 10, Formula A-I; 1 μM ATP; read-out: JAK3 (IC50)
observed-property: IC50

INSERT INTO assay_data (molecule, reported_result) VALUES
  ('Cc1cc(Nc2nc(N3CCC(CNC(=O)c4ccc(N(C)C)cc4)CC3)cnc2C(N)=O)sn1', '< 100 nM'),
  ('Cc1cc(Nc2nc(N3CCC[C@@H](NC(=O)c4ccc(C(C)C)cc4)[C@H]3C)cnc2C(N)=O)sn1', '1000 to 10000 nM'),
  ('Cc1cc(Nc2nc(N3CCCC(CNC(=O)c4ccc(N(C)C)cc4)C3)cnc2C(N)=O)sn1 (stereo not shown)', '1000 to 10000 nM'),
  ('Cc1cc(Nc2nc(N3CCC[C@@H](NC(=O)c4ccc(C5CC5)c(F)c4)C3)cnc2C(N)=O)sn1', '1000 to 10000 nM'),
  ('Cc1cc(Nc2nc(N3CCC[C@@H](NC(=O)c4ccc(C5CC5)cc4)C3)cnc2C(N)=O)sn1', '1000 to 10000 nM'),
  ('CS(=O)(=O)c1ccc(Nc2nc(N3CCC[C@@H](N4CCN(c5cccc(Cl)c5)C4=O)C3)cnc2C(N)=O)cc1', '1000 to 10000 nM'),
  ('CN(C(=O)N[C@@H]1CCCN(c2cnc(C(N)=O)c(Nc3ccc(C4CCN(C5CCCC5)CC4)cc3)n2)C1)c1ccccc1', '100 to 1000 nM');
